Assignment: determine reported percent GSPT1 degradation at 0.2 µM for the given compounds.
# STUDY TARGET: GSPT1 protein (Homo sapiens, UniProt P15170+Q96SW2)
# Construct: host or cells: KG-1 cells
# Sequence (P15170 whole entry): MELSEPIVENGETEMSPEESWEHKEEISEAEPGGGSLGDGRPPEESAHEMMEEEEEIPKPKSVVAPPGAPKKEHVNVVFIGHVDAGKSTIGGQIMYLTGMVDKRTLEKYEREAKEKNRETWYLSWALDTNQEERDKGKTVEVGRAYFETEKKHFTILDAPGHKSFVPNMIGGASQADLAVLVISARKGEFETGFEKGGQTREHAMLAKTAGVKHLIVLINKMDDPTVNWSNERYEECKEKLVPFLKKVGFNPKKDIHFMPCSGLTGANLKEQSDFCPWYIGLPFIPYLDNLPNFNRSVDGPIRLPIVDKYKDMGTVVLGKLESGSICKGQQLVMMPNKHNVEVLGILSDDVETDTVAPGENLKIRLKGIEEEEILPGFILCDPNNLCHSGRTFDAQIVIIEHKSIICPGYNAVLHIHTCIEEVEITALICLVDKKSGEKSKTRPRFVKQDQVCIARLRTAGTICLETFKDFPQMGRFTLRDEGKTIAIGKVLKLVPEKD
# Sequence (Q96SW2 whole entry): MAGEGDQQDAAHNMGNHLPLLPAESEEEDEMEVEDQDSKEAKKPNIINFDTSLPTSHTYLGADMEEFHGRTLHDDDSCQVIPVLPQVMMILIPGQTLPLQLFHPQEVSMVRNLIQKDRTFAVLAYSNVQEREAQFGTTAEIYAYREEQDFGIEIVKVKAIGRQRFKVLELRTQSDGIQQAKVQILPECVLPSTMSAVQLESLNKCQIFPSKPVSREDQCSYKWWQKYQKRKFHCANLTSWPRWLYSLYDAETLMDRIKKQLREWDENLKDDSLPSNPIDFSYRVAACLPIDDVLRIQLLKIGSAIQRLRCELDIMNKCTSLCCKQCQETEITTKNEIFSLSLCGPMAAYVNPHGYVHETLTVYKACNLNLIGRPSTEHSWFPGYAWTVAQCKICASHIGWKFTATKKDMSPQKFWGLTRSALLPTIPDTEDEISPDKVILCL
# Sequence (Q16531 whole entry partner): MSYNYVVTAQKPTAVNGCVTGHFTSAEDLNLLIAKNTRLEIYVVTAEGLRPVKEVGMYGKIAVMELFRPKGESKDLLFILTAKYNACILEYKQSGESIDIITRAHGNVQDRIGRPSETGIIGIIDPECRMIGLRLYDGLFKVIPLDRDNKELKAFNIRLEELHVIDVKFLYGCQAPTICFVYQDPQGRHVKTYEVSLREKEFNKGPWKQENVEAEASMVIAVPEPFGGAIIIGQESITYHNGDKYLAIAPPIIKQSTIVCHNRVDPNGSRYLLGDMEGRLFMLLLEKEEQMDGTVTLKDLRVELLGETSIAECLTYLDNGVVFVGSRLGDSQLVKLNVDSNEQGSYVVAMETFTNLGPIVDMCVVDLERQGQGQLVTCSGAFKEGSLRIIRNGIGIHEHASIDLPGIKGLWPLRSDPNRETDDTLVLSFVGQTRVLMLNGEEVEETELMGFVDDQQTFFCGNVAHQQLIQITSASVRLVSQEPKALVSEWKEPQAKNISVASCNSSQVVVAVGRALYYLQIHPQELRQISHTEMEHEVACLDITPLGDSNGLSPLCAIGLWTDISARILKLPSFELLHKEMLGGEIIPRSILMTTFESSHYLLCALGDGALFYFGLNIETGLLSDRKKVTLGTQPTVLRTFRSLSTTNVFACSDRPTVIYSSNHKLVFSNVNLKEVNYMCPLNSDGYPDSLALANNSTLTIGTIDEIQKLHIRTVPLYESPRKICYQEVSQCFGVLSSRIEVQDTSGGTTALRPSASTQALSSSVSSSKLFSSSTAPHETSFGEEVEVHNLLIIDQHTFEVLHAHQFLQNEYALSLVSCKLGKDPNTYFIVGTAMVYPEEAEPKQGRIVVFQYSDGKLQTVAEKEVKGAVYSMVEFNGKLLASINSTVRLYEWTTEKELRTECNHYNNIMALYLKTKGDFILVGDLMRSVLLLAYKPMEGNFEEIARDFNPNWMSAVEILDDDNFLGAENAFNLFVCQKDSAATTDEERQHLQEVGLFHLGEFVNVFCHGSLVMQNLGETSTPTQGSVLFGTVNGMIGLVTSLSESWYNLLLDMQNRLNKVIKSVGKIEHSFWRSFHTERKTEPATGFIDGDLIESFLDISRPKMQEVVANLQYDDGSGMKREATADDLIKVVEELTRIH
# EXPERIMENT SUMMARY: Degradation of GSPT1 in KG-1 cells (Western blot)
# Format: cell-based
# MEASUREMENT PARAMETERS: KG-1 cells, compound concentration 200 nM, 4 hours

Prompt: Please give the measured percent GSPT1 degradation at 0.2 µM for this compound: O=C1CCC(N2Cc3cc(CNC(=O)C4=Cc5cc(F)cc(F)c5OC4)ccc3C2=O)C(=O)N1 (centres unmarked) [Compound A-33]
Response: > 80%

Prompt: Please give the measured percent GSPT1 degradation at 0.2 µM for this compound: O=C1CCC(N2Cc3cc(CNC(=O)C4=Cc5cc(NC(=O)C6CC6)ccc5OC4)ccc3C2=O)C(=O)N1 (centres unmarked) [Compound A-26]
Response: < 25%

Prompt: Please give the measured percent GSPT1 degradation at 0.2 µM for this compound: O=C1CCC(N2Cc3cc(CNC(=O)C4=Cc5ccccc5OC4)ccc3C2=O)C(=O)N1 (centres unmarked) [Compound A-1]
Response: > 80%

Prompt: Please give the measured percent GSPT1 degradation at 0.2 µM for this compound: O=C1CCC(N2Cc3c(ccc(CNC(=O)C4=Cc5cc(OC(F)(F)F)ccc5OC4)c3F)C2=O)C(=O)N1 (centres unmarked) [Compound A-42]
Response: > 80%

Prompt: Please give the measured percent GSPT1 degradation at 0.2 µM for this compound: O=C1CCC(N2Cc3cc(CNC(=O)C4CNc5ccccc5C4)ccc3C2=O)C(=O)N1 (centres unmarked) [Compound C-1]
Response: > 80%

Prompt: Please give the measured percent GSPT1 degradation at 0.2 µM for this compound: O=C1CCC(N2Cc3cc(CNC(=O)C4=Cc5cc(NC(=O)CO)ccc5OC4)ccc3C2=O)C(=O)N1 (centres unmarked) [Compound A-25]
Response: 25 to 50%

Prompt: Please give the measured percent GSPT1 degradation at 0.2 µM for this compound: O=C1CCC(N2Cc3cccc(CNC(=O)C4=Cc5cc(OC(F)(F)F)ccc5OC4)c3C2=O)C(=O)N1 (centres unmarked) [Compound A-39]
Response: 50 to 80%

Prompt: Please give the measured percent GSPT1 degradation at 0.2 µM for this compound: Cc1cc2c(cc1Cl)OCC(C(=O)NCc1ccc3c(c1)CN(C1CCC(=O)NC1=O)C3=O)=C2 (centres unmarked) [Compound A-29]
Response: > 80%

Prompt: Please give the measured percent GSPT1 degradation at 0.2 µM for this compound: O=C1CCC(N2Cc3cc(CNC(=O)C(F)(F)c4ccc(Cl)cc4)ccc3C2=O)C(=O)N1 (centres unmarked) [CC-90009]
Response: 50 to 80%

Prompt: Please give the measured percent GSPT1 degradation at 0.2 µM for this compound: O=C1CCC(N2Cc3cc(CNC(=O)C4=Cc5c(F)ccc(F)c5OC4)ccc3C2=O)C(=O)N1 (centres unmarked) [Compound A-36]
Response: > 80%

Prompt: Please give the measured percent GSPT1 degradation at 0.2 µM for this compound: N#Cc1ccc2c(c1)C=C(C(=O)NCc1ccc3c(c1)CN(C1CCC(=O)NC1=O)C3=O)CO2 (centres unmarked) [Compound A-11]
Response: > 80%

Prompt: Please give the measured percent GSPT1 degradation at 0.2 µM for this compound: O=C1CCC(N2Cc3cc(CNC(=O)C4=Cc5cccc(F)c5OC4)ccc3C2=O)C(=O)N1 (centres unmarked) [Compound A-5]
Response: > 80%

Prompt: Please give the measured percent GSPT1 degradation at 0.2 µM for this compound: O=C1CCC(N2Cc3cc(CNC(=O)C4=Cc5ccc(F)c(F)c5OC4)ccc3C2=O)C(=O)N1 (centres unmarked) [Compound A-32]
Response: > 80%

Prompt: Please give the measured percent GSPT1 degradation at 0.2 µM for this compound: O=C1CCC(N2Cc3c(CNC(=O)C4=Cc5cc(OC(F)(F)F)ccc5OC4)cccc3C2=O)C(=O)N1 (centres unmarked) [Compound A-41]
Response: 50 to 80%

Prompt: Please give the measured percent GSPT1 degradation at 0.2 µM for this compound: O=C1CCC(N2Cc3cc(CNC(=O)C4=Cc5c(F)cc(F)cc5OC4)ccc3C2=O)C(=O)N1 (centres unmarked) [Compound A-34]
Response: > 80%

Prompt: Please give the measured percent GSPT1 degradation at 0.2 µM for this compound: O=C1CCC(N2Cc3cc(CNC(=O)C4=Cc5ccc(F)cc5OC4)ccc3C2=O)C(=O)N1 (centres unmarked) [Compound A-4]
Response: 50 to 80%

Prompt: Please give the measured percent GSPT1 degradation at 0.2 µM for this compound: CC(=O)Nc1ccc2c(c1)C=C(C(=O)NCc1ccc3c(c1)CN(C1CCC(=O)NC1=O)C3=O)CO2 (centres unmarked) [Compound A-23]
Response: 25 to 50%

Prompt: Please give the measured percent GSPT1 degradation at 0.2 µM for this compound: Cc1cc2c(cc1C)OCC(C(=O)NCc1ccc3c(c1)CN(C1CCC(=O)NC1=O)C3=O)=C2 (centres unmarked) [Compound A-37]
Response: > 80%

Prompt: Please give the measured percent GSPT1 degradation at 0.2 µM for this compound: Cc1cc2c(cc1F)OCC(C(=O)NCc1ccc3c(c1)CN(C1CCC(=O)NC1=O)C3=O)=C2 (centres unmarked) [Compound A-30]
Response: > 80%

Prompt: Please give the measured percent GSPT1 degradation at 0.2 µM for this compound: Cc1cccc2c1C=C(C(=O)NCc1ccc3c(c1)CN(C1CCC(=O)NC1=O)C3=O)CO2 (centres unmarked) [Compound A-22]
Response: > 80%

Prompt: Please give the measured percent GSPT1 degradation at 0.2 µM for this compound: O=C1CCC(N2Cc3ccc(CNC(=O)C4=Cc5cc(OC(F)(F)F)ccc5OC4)cc3C2=O)C(=O)N1 (centres unmarked) [Compound A-40]
Response: 50 to 80%

Prompt: Please give the measured percent GSPT1 degradation at 0.2 µM for this compound: O=C1CCC(N2Cc3cc(CNC(=O)C4COc5ccc(OC(F)(F)F)cc5C4)ccc3C2=O)C(=O)N1 (centres unmarked) [Compound B-4]
Response: > 80%

Prompt: Please give the measured percent GSPT1 degradation at 0.2 µM for this compound: O=C1CCC(N2Cc3cc(CNC(=O)C4=Cc5cccc(C(F)(F)F)c5OC4)ccc3C2=O)C(=O)N1 (centres unmarked) [Compound A-18]
Response: > 80%

Prompt: Please give the measured percent GSPT1 degradation at 0.2 µM for this compound: O=C1CCC(N2Cc3cc(CNC(=O)C4=Cc5cc(-c6ccccc6)ccc5OC4)ccc3C2=O)C(=O)N1 (centres unmarked) [Compound A-17]
Response: 50 to 80%

Prompt: Please give the measured percent GSPT1 degradation at 0.2 µM for this compound: O=C1CCC(N2Cc3cc(CNC(=O)C4COc5ccc(F)cc5C4)ccc3C2=O)C(=O)N1 (centres unmarked) [Compound B-2]
Response: > 80%

Prompt: Please give the measured percent GSPT1 degradation at 0.2 µM for this compound: Cc1ccc(C)c2c1C=C(C(=O)NCc1ccc3c(c1)CN(C1CCC(=O)NC1=O)C3=O)CO2 (centres unmarked) [Compound A-38]
Response: > 80%

Prompt: Please give the measured percent GSPT1 degradation at 0.2 µM for this compound: O=C1CCC(N2Cc3cc(CNC(=O)C4=Cc5cc(NC(=O)C6CCC6)ccc5OC4)ccc3C2=O)C(=O)N1 (centres unmarked) [Compound A-27]
Response: < 25%

Prompt: Please give the measured percent GSPT1 degradation at 0.2 µM for this compound: O=C1CCC(N2Cc3cc(CNC(=O)C4CCc5ccccc5C4)ccc3C2=O)C(=O)N1 [Compound D-1]
Response: < 25%

Prompt: Please give the measured percent GSPT1 degradation at 0.2 µM for this compound: O=C1CCC(N2Cc3cc(CNC(=O)C4=Cc5cc(F)ccc5OC4)ccc3C2=O)C(=O)N1 (centres unmarked) [Compound A-3]
Response: > 80%

Prompt: Please give the measured percent GSPT1 degradation at 0.2 µM for this compound: CN(C)c1ccc2c(c1)C=C(C(=O)NCc1ccc3c(c1)CN(C1CCC(=O)NC1=O)C3=O)CO2 (centres unmarked) [Compound A-13]
Response: 50 to 80%

Prompt: Please give the measured percent GSPT1 degradation at 0.2 µM for this compound: CC(C)(C)c1ccc2c(c1)C=C(C(=O)NCc1ccc3c(c1)CN(C1CCC(=O)NC1=O)C3=O)CO2 (centres unmarked) [Compound A-16]
Response: 50 to 80%

Prompt: Please give the measured percent GSPT1 degradation at 0.2 µM for this compound: O=C1CCC(N2Cc3cc(CNC(=O)C4=Cc5cccc(OC(F)(F)F)c5OC4)ccc3C2=O)C(=O)N1 (centres unmarked) [Compound A-19]
Response: > 80%

Source: patent EP4703358A1
